B1: CDKL4 (parent)
chain: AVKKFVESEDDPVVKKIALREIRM

# Variants of: B1
# protocolDetails: protein stability index of a GFP-peptide fusion (GPS, HEK-293T) (PSI 1-6); higher = more stable;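 also: lentivirally expressed fusions sorted by FACS into six bins by GFP to DsRed ratio, PSI derived from sequencing read proportions per bin multiplied by bin number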
# conditionSet: c terminus: a fixed tail appended
Answer Not satisfied if protein stability index is under 3, and Satisfied if it is 3 or more.

Consider the following illustrative entries.
1. AVKKFIESEDDPVVKKIALREIRM [V6I]    Not satisfied
2. AVKKFVESEDDPVVKAIALREIRM [K16A]    Satisfied
3. AVKKFVESEWDPVVKKIALREIRM [D10W]    Not satisfied
4. AVKKFVESEYDPVVKKIALREIRM [D10Y]    Not satisfied
5. AVKKKVESEDDPVVKKIALREIRM [F5K]    Satisfied
6. AVKKFVESEDDPVVKKIALREIRK [M24K]    Satisfied

Lookup: Exam item: decide whether the reported protein stability index for AVKKFVESEDDPVVKDIALREIRM [K16D] is at least 3.
Found: Satisfied

Lookup: Then this variant: AVKKFVESEDDPVVSKIALREIRM [K15S]
Found: Not satisfied

Lookup: Then this variant: ASKKFVESEDDPVVKKIALREIRM [V2S]
Found: Satisfied

Lookup: Then this variant: AVKKFVESEDDPVVVKIALREIRM [K15V]
Found: Not satisfied
